Reported pIC50 values follow for various molecules
biological target: Cloned Human Serotonin Receptor, Subtype 7 (h5HT7), expressed in CHO cells (Homo sapiens); construct: purchased PerkinElmer 6120512; host or cells: CHO cells; experiment: Radioligand binding assay, [125I]LSD, cloned human 5HT7 receptor on Flashplate; conditions: radioligand [125I]LSD 0.82 nM
Sequence (P34969 whole entry): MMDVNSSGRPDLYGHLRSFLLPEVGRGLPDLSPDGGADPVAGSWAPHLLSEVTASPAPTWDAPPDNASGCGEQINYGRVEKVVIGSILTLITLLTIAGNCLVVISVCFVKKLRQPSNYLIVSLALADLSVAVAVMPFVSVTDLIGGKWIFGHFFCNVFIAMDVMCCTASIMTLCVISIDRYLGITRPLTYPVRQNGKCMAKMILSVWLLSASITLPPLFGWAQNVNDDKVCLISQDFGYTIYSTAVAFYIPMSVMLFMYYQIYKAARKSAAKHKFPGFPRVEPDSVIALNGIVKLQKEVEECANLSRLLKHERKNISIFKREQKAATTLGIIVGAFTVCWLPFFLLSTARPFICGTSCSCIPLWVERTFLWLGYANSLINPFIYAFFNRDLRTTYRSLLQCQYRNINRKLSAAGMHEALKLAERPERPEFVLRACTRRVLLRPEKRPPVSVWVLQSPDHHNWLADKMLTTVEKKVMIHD
In simple prose, pIC50 is minus the logarithm base ten of a concentration in moles per litre.

Below, 2 molecules whose answers are already recorded.
[
  {
    "molecule": "Clc1ccc(CN2CCN(c3cccc4[nH]ccc34)CC2)cc1Cl [Ex 34]",
    "observed.value": 5.91
  },
  {
    "molecule": "Clc1ccccc1CN1CCN(c2cccc3[nH]ccc23)CC1 [Ex 33]",
    "observed.value": 6.65
  }
]

Please find the next molecule below.
Recorded result, N#CCCCN1CCN(c2cccc3[nH]ccc23)CC1 [Ex 7] , pIC50: 6.15
